Test: Compound was tested for maximum blood concentration after 0.5 mg/kg administration (Po) in Beagle dogs; nM/L maximum blood concentration
Type: ADME, organism-based, Canis lupus familiaris
Set-up: route oral, dose 0.5 mg/kg
Settings: dog
experimental-endpoint: Cmax (nM)
Use nM as the unit, but write only the number.

Given `CNC(=O)[C@@H](Cc1ccc(F)cc1)N(C)C(=O)[C@@H](Cc1ccc2ccccc2c1)N(C)C(=O)/C=C/CC(C)(C)N` , state its recorded Cmax.
99

###

Tested on: Sus scrofa
Assay: Tested for in vivo activity against GH release after iv administration in swine
// assign Fulfilled if Cmax [GH] falls strictly below 9 ng/mL, else Not fulfilled (ties count as Not fulfilled)

Lab log: compare recorded Cmax [GH] with 9 ng/mL; is it strictly lower for `C[C@H](O)CNC(=O)[C@@H](Cc1ccc(F)c(F)c1)N(C)C(=O)[C@@H](Cc1ccc2ccccc2c1)N(C)C(=O)/C=C/CC(C)(C)N` ?
Fulfilled

Please determine if `CNC(=O)[C@@H](Cc1ccc(F)cc1)N(C)C(=O)[C@@H](Cc1ccc2ccccc2c1)N(C)C(=O)/C=C/CC(C)(C)N` is below 9 ng/mL in terms of Cmax [GH].
Not fulfilled

Please indicate whether the reported Cmax [GH] of C[C@@H](O)CNC(=O)[C@@H](Cc1ccccc1)N(C)C(=O)[C@@H](Cc1ccc2ccccc2c1)N(C)C(=O)/C=C/CC(C)(C)N (stereo in doubt; 7b) is strictly below 9 ng/mL.
Not fulfilled

Does the reported Cmax [GH] of the following compound sit strictly below 9 ng/mL? `CNC(=O)[C@@H](Cc1ccccc1)N(C)C(=O)[C@@H](COCc1ccccc1)N(C)C(=O)/C=C/CC(C)(C)N`
Fulfilled

###

Could you please report measured Emax for the items listed next?
Target: Growth hormone secretagogue receptor type 1 (Rattus norvegicus) (UniProt O08725)
Sequence (O08725 whole entry): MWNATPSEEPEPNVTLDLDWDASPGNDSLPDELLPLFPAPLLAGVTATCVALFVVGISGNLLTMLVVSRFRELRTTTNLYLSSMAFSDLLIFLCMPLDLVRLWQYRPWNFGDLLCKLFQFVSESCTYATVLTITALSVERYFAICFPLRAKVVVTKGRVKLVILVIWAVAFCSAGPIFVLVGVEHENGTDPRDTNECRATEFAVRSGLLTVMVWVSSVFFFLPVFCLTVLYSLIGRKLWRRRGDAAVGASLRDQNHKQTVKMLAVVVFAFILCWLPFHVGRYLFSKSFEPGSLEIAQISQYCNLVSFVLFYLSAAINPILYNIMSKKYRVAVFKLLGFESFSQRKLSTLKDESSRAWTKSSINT
Assay: Tested for GH-releasing property using classical rat pituitary cell assay
Type: functional, cell-based
Conditions: Pituitary gland cell
Number only, in %; omit the unit.

Reported Emax for Growth hormone secretagogue receptor type 1 (Rattus norvegicus) (UniProt O08725), given `CNC(=O)[C@@H](Cc1ccccc1)N(C)C(=O)[C@@H](Cc1csc2ccccc12)N(C)C(=O)/C=C/CC(C)(C)N` ?
80

// fetch Growth hormone secretagogue receptor type 1 (Rattus norvegicus) (UniProt O08725) Emax for `CNC(=O)[C@@H](Cc1ccc(F)cc1)N(C)C(=O)[C@@H](Cc1ccc2ccccc2c1)N(C)C(=O)/C=C/CC(C)(C)N`
90

Any idea what Emax came out for `CNC(=O)[C@@H](Cc1ccc(I)cc1)N(C)C(=O)[C@@H](Cc1ccc2ccccc2c1)N(C)C(=O)/C=C/CC(C)(C)N` on Growth hormone secretagogue receptor type 1 (Rattus norvegicus) (UniProt O08725)?
110

Which Emax is reported with Growth hormone secretagogue receptor type 1 (Rattus norvegicus) (UniProt O08725) for this entry: `C[C@H](O)CNC(=O)[C@@H](Cc1ccc(F)c(F)c1)N(C)C(=O)[C@@H](Cc1ccc2ccccc2c1)N(C)C(=O)/C=C/CC(C)(C)N` ?
100

I'm curious: which Emax was measured for `CNC(=O)[C@@H](Cc1ccc(F)c(F)c1)N(C)C(=O)[C@@H](Cc1ccc2ccccc2c1)N(C)C(=O)/C=C/CC(C)(C)N` tested on Growth hormone secretagogue receptor type 1 (Rattus norvegicus) (UniProt O08725)?
85

###

Experiment: Compound was tested for oral bioavailability after 10 mg/kg administration (Po) in Beagle dogs; fpo % Oral Bioavailability
Format: ADME, organism-based, Canis lupus familiaris
Conditions: dog, in vivo
experimental-endpoint: bioavailability (%)
Field: numeric (%). Do not append units.

For the compound shown here, `CNC(=O)[C@@H](Cc1ccc(F)cc1)N(C)C(=O)[C@@H](Cc1ccc2ccccc2c1)N(C)C(=O)/C=C/CC(C)(C)N` , give the reported bioavailability.
138

From: ChEMBL document CHEMBL1131585
